Property: IC50; scope: individual molecules
experiment: Compound was evaluated for toxicity on Human kidney epithelial (Graham cells) at a dose of 100 ug/mL; type: cell-based
recorded-metric: IC50 (µg/mL)

molecule	units-symbol	experimental-value
C=C1C(=O)[C@@]23CCC4[C@@]5(C)CCC[C@@]4(OC5=O)[C@@]2(C)CC[C@]1(O)C3 (stereo partly drawn)	µg/mL	1.73
C=C1C(=O)[C@@]23CCC4[C@@]5(C)CCC[C@@]4(OC5=O)[C@@]2(C)CC[C@@H]1C3 (stereo partly drawn)	µg/mL	3.01
C=C1C(=O)[C@@]23CC[C@@H]4[C@@]5(C)CCC[C@@]4(OC5=O)[C@@]2(C)CC[C@]1(OC)C3	µg/mL	1.13
